Assay: Chemical stability of ADC payload in Mcilvane buffer pH 5.5
Type: physicochemical
Details: McIlvaine (citrate-phosphate) buffer; payload 20 μM, pH 5.5, 37° C.; read-out: Stability Mean Stability t½ pH 5.5 (converted)
VALUE_KIND: half-life at 20 μM (h)
Numeric answer only, unit h assumed.

Prompt: Please look at this compound and report its half-life at 20 μM: CO[C@H]([C@@H](C)[C@H]1O[C@]1(C)C[C@H](C)/C=C/C=C(\C)[C@H]1O[C@@H](CC(=O)O)C[C@@H](OC(=O)N2CCNCC2)[C@@H]1C)[C@@H](C)O [Compound H1]
Response: 84

###

System: HCC1954 breast cancer cells
Assay: Payload cell viability dose response (CellTiter-Glo 2.0), HCC1954 (Example 4)
Format: cell-based, human
Conditions: HCC1954, 72 h
Readings of CTG 72 h Rmin for the listed compounds
Reply with just the number (in %).

These recorded examples may help you get a feel for the data.
CO[C@H]([C@@H](C)[C@H]1O[C@]1(C)C[C@H](C)/C=C/C=C(\C)[C@H]1O[C@@H](CC(=O)NCCCC[C@@H](NC(=O)N2CCN(C)CC2)C(=O)O)CC[C@@H]1C)[C@@H](C)O : 32.813
COC(=O)[C@@H](CCCCNC(=O)C[C@H]1CC[C@H](C)[C@@H](/C(C)=C/C=C/[C@@H](C)C[C@@]2(C)O[C@@H]2[C@H](C)[C@@H](OC)[C@@H](C)O)O1)NC(=O)N1CCN(C)CC1 : −44.802
CO[C@H]([C@@H](C)[C@H]1O[C@]1(C)C[C@H](C)/C=C/C=C(\C)[C@H]1O[C@@H](CC(=O)N[C@H](CCCOC(=O)N2CCN(C)CC2)C(=O)O)CC[C@@H]1C)[C@@H](C)O : −20.785
CO[C@H]([C@@H](C)[C@H]1O[C@]1(C)C[C@H](C)/C=C/C=C(\C)[C@H]1O[C@@H](CC(=O)N[C@@H](CCCOC(=O)N2CCN(C)CC2)C(=O)O)CC[C@@H]1C)[C@@H](C)O : −48.872
CO[C@H]([C@@H](C)[C@H]1O[C@]1(C)C[C@H](C)/C=C/C=C(\C)[C@H]1O[C@@H](CC(=O)N[C@@H](COC(=O)N2CCN(C)CC2)C(=O)O)CC[C@@H]1C)[C@@H](C)O : −54.164

Prompt: Report measured CTG 72 h Rmin; entry is CO[C@H]([C@@H](C)[C@H]1O[C@]1(C)C[C@H](C)/C=C/C=C(\C)[C@H]1O[C@@H](CC(=O)N[C@@H](CCNC(=O)N2CCN(C)CC2)C(=O)O)CC[C@@H]1C)[C@@H](C)O
Response: −44.191

Prompt: Read off the recorded CTG 72 h Rmin for CO[C@H]([C@@H](C)[C@H]1O[C@]1(C)C[C@H](C)/C=C/C=C(\C)[C@H]1O[C@@H](CC(=O)N[C@@H](CCOC(=O)N2CCN(C)CC2)C(=O)O)CC[C@@H]1C)[C@@H](C)O
Response: −42.359

Prompt: Please give measured CTG 72 h Rmin of the following entry: COC(=O)[C@@H](CCCCNC(=O)N1CCN(C)CC1)NC(=O)C[C@H]1CC[C@H](C)[C@@H](/C(C)=C/C=C/[C@@H](C)C[C@@]2(C)O[C@@H]2[C@H](C)[C@@H](OC)[C@@H](C)O)O1
Response: −54.164

Prompt: Dear colleague, please send me the reported CTG 72 h Rmin for CO[C@H]([C@@H](C)[C@H]1O[C@]1(C)C[C@H](C)/C=C/C=C(\C)[C@H]1O[C@@H](CNC(=O)[C@H]2CC[C@H](COC(=O)N3CCN(C)CC3)CC2)CC[C@@H]1C)[C@@H](C)O when you can.
Response: 82.229

Prompt: Report CTG 72 h Rmin for COC(=O)[C@H](CCNC(=O)N1CCN(C)CC1)NC(=O)C[C@H]1CC[C@H](C)[C@@H](/C(C)=C/C=C/[C@@H](C)C[C@@]2(C)O[C@@H]2[C@H](C)[C@@H](OC)[C@@H](C)O)O1
Response: −65.968

// provenance: patent US12514928B2
